Molecular target: Adrenergic receptor alpha-2 (Rattus norvegicus, UniProt P22086+P19328+P22909)
Test: Displacement of [3H]clonidine from adrenergic alpha2 receptor in Sprague-Dawley rat cortex membrane
Format: cell membranes
readoutKind: Ki

* NS(=O)(=O)c1cccc2c3c(ccc12)CCNC3 | 2.9 µM
* Oc1cccc2c3c(ccc12)CCNC3 | 0.011 µM
* N#Cc1cccc2c3c(ccc12)CCNC3 | 0.59 µM
* COc1cccc2c3c(ccc12)CCNC3 | 0.16 µM
* c1ccc2c3c(ccc2c1)CCNC3 | 0.016 µM
* O=[N+]([O-])c1cccc2c3c(ccc12)CCNC3 | 0.41 µM
* Brc1cccc2c3c(ccc12)CCNC3 | 0.1 µM

// provenance: ChEMBL document CHEMBL1146307
